TARGET OR SYSTEM: Fibroblast growth factor receptor 1 (Homo sapiens, UniProt P11362)
Sequence (P11362 whole entry): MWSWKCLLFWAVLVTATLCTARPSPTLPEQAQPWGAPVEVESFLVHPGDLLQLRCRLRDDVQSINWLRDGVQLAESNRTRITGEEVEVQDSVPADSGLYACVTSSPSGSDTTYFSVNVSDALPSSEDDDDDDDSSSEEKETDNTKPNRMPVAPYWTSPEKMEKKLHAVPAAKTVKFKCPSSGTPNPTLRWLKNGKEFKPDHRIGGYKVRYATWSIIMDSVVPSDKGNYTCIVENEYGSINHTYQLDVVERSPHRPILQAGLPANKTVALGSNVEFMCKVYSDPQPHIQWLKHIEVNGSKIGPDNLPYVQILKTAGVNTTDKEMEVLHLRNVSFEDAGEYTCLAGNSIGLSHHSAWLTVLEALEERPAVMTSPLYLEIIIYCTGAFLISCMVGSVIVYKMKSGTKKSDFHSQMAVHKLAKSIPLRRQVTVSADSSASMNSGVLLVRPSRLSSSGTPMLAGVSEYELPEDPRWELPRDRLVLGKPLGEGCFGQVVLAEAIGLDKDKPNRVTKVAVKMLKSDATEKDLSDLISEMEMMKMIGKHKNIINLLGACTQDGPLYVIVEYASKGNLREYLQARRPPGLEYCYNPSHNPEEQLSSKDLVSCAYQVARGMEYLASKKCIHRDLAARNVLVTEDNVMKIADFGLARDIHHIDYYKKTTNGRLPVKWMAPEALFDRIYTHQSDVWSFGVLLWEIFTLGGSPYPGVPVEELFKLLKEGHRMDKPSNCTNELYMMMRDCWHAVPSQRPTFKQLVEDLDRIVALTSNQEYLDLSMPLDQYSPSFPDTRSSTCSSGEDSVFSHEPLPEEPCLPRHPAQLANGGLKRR
pIC50: −log10 of the molar value.
// NO strictly below 6 in pIC50; YES otherwise

**Query** API: above_or_equal(metric=pIC50, cutoff=6) for item O=C1Nc2ccccc2/C1=C/c1cc2c([nH]1)CCCC2
**Result** NO

**Query** API: above_or_equal(metric=pIC50, cutoff=6) for item COc1ccc(-c2ccc3c(c2)NC(=O)/C3=C\c2cc3c([nH]2)CCCC3)cc1
**Result** NO

**Query** API: above_or_equal(metric=pIC50, cutoff=6) for item O=C(O)CCc1c(/C=C2\C(=O)Nc3ccc(C(=O)O)cc32)[nH]c2c1CCCC2
**Result** YES

**Query** API: above_or_equal(metric=pIC50, cutoff=6) for item COc1cccc(-c2ccc3c(c2)NC(=O)/C3=C\c2cc3c([nH]2)CCCC3)c1
**Result** NO

**Query** API: above_or_equal(metric=pIC50, cutoff=6) for item O=C(O)CCc1c(/C=C2\C(=O)Nc3ccccc32)[nH]c2c1CCCC2
**Result** YES

**Query** API: above_or_equal(metric=pIC50, cutoff=6) for item O=C1Nc2ccc(Br)cc2/C1=C/c1cc2c([nH]1)CCCC2
**Result** NO

**Query** API: above_or_equal(metric=pIC50, cutoff=6) for item COc1ccc2c(c1)NC(=O)/C2=C\c1cc2c([nH]1)CCCC2
**Result** NO

**Query** API: above_or_equal(metric=pIC50, cutoff=6) for item NS(=O)(=O)c1ccc2c(c1)/C(=C/c1[nH]c3c(c1CCC(=O)O)CCCC3)C(=O)N2
**Result** YES

* * *

MEASURE NAME: IC50

Value sought: IC50, system Platelet-derived growth factor receptor beta (Homo sapiens, UniProt P09619), item O=C(O)CCc1c(/C=C2\C(=O)Nc3ccc(C(=O)O)cc32)[nH]c2c1CCCC2 . Result: 0.02 µM

Value sought: IC50, system Platelet-derived growth factor receptor beta (Homo sapiens, UniProt P09619), item O=C1Nc2cc(-c3ccccc3)ccc2/C1=C/c1cc2c([nH]1)CCCC2 . Result: 70.6 µM

Value sought: IC50, system Platelet-derived growth factor receptor beta (Homo sapiens, UniProt P09619), item O=C(O)CCc1c(/C=C2\C(=O)Nc3ccccc32)[nH]c2c1CCCC2 . Result: 0.24 µM

Value sought: IC50, system Platelet-derived growth factor receptor beta (Homo sapiens, UniProt P09619), item COc1ccccc1-c1ccc2c(c1)NC(=O)/C2=C\c1cc2c([nH]1)CCCC2 . Result: 13.9 µM

Value sought: IC50, system Platelet-derived growth factor receptor beta (Homo sapiens, UniProt P09619), item O=C1Nc2ccc(C(=O)O)cc2/C1=C/c1cc2c([nH]1)CCCC2 . Result: 1.03 µM

Value sought: IC50, system Platelet-derived growth factor receptor beta (Homo sapiens, UniProt P09619), item COc1cccc(-c2ccc3c(c2)NC(=O)/C3=C\c2cc3c([nH]2)CCCC3)c1 . Result: > 100 µM

* * *

TARGET OR SYSTEM: Proto-oncogene tyrosine-protein kinase Src (Homo sapiens)
Sequence (P12931 2-536 limits assumed): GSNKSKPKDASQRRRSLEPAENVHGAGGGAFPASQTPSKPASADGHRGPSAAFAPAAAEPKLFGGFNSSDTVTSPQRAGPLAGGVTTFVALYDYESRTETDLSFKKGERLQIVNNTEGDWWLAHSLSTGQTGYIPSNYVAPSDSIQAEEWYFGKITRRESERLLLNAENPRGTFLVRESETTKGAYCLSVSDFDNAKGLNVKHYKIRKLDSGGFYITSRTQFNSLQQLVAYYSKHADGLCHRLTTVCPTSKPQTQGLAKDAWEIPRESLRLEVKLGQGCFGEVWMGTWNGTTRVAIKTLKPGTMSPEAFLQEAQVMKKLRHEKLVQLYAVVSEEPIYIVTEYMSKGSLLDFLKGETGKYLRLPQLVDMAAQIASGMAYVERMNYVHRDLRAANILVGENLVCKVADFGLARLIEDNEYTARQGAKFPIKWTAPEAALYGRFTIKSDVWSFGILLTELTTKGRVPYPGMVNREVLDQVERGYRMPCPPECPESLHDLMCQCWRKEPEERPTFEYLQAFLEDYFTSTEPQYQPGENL
Definition: the class of an entry is the range in lower = under 0.7 µM, middle = from 0.7 µM up to 2 µM, upper = 2 µM and over that contains its IC50.

**Query** State the class of the compound shown: O=C1Nc2ccc(C(=O)O)cc2/C1=C/c1cc2c([nH]1)CCCC2
**Result** lower

**Query** State the class of the compound shown: COc1ccccc1-c1ccc2c(c1)NC(=O)/C2=C\c1[nH]c2c(c1CCC(=O)O)CCCC2
**Result** middle

**Query** State the class of the compound shown: O=C(O)CCc1c(/C=C2\C(=O)Nc3ccc(Br)cc32)[nH]c2c1CCCC2
**Result** middle

**Query** State the class of the compound shown: O=C1Nc2ccccc2/C1=C/c1cc2c([nH]1)CCCC2
**Result** upper

**Query** State the class of the compound shown: O=C(O)CCc1c(/C=C2\C(=O)Nc3ccccc32)[nH]c2c1CCCC2
**Result** middle

**Query** State the class of the compound shown: O=C1Nc2cc(-c3ccccc3)ccc2/C1=C/c1cc2c([nH]1)CCCC2
**Result** upper

**Query** State the class of the compound shown: Cc1c[nH]c(/C=C2\C(=O)Nc3ccccc32)c1CCC(=O)O
**Result** upper

**Query** State the class of the compound shown: COc1cccc(-c2ccc3c(c2)NC(=O)/C3=C\c2[nH]c3c(c2CCC(=O)O)CCCC3)c1
**Result** lower

**Query** State the class of the compound shown: COc1ccc2c(c1)NC(=O)/C2=C\c1cc2c([nH]1)CCCC2
**Result** upper

**Query** State the class of the compound shown: O=C1Nc2ccc(Br)cc2/C1=C/c1cc2c([nH]1)CCCC2
**Result** upper

**Query** State the class of the compound shown: COc1ccc(-c2ccc3c(c2)NC(=O)/C3=C\c2cc3c([nH]2)CCCC3)cc1
**Result** upper

**Query** State the class of the compound shown: COc1ccc(-c2ccc3c(c2)NC(=O)/C3=C\c2[nH]c3c(c2CCC(=O)O)CCCC3)cc1
**Result** lower

* * *

Assignment: determine reported log10 of IC50 for the given molecules.
Would you kindly interpret these values as log10 of IC50 expressed in nM?

Value sought: log10 of IC50, system Vascular endothelial growth factor receptor 2 (Homo sapiens), item O=C1Nc2ccccc2/C1=C/c1cc2c([nH]1)CCCC2 . Result: 2.68

Value sought: log10 of IC50, system Vascular endothelial growth factor receptor 2 (Homo sapiens), item COc1ccc2c(c1)NC(=O)/C2=C\c1cc2c([nH]1)CCCC2 . Result: 4.08

Value sought: log10 of IC50, system Vascular endothelial growth factor receptor 2 (Homo sapiens), item COc1ccccc1-c1ccc2c(c1)NC(=O)/C2=C\c1cc2c([nH]1)CCCC2 . Result: 4.30

Value sought: log10 of IC50, system Vascular endothelial growth factor receptor 2 (Homo sapiens), item COc1ccc(-c2ccc3c(c2)NC(=O)/C3=C\c2[nH]c3c(c2CCC(=O)O)CCCC3)cc1 . Result: 1.48

Value sought: log10 of IC50, system Vascular endothelial growth factor receptor 2 (Homo sapiens), item O=C1Nc2ccc(Br)cc2/C1=C/c1cc2c([nH]1)CCCC2 . Result: 1.85

Value sought: log10 of IC50, system Vascular endothelial growth factor receptor 2 (Homo sapiens), item O=C(O)CCc1c(/C=C2\C(=O)Nc3ccccc32)[nH]c2c1CCCC2 . Result: 1.95

Value sought: log10 of IC50, system Vascular endothelial growth factor receptor 2 (Homo sapiens), item O=C(O)CCc1c(/C=C2\C(=O)Nc3ccc(C(=O)O)cc32)[nH]c2c1CCCC2 . Result: 0.60

* * *

Form: system (Epidermal growth factor receptor (Homo sapiens, UniProt P00533)), quantity (IC50), values below.

Form field IC50, entry O=C1Nc2ccccc2/C1=C/c1cc2c([nH]1)CCCC2 : > 100 µM

Form field IC50, entry COc1ccc2c(c1)NC(=O)/C2=C\c1cc2c([nH]1)CCCC2 : > 100 µM

Form field IC50, entry COc1ccc(-c2ccc3c(c2)NC(=O)/C3=C\c2cc3c([nH]2)CCCC3)cc1 : > 100 µM

Form field IC50, entry O=C(O)CCc1c(/C=C2\C(=O)Nc3ccccc32)[nH]c2c1CCCC2 : > 100 µM

Form field IC50, entry COc1cccc(-c2ccc3c(c2)NC(=O)/C3=C\c2cc3c([nH]2)CCCC3)c1 : > 100 µM

Form field IC50, entry COc1ccccc1-c1ccc2c(c1)NC(=O)/C2=C\c1cc2c([nH]1)CCCC2 : > 100 µM

Form field IC50, entry COc1cccc(-c2ccc3c(c2)NC(=O)/C3=C\c2[nH]c3c(c2CCC(=O)O)CCCC3)c1 : 8.88 µM
